Molecular target: Calcium sensing receptor (hCaSR) (Homo sapiens)
Sequence (P41180 20-1078): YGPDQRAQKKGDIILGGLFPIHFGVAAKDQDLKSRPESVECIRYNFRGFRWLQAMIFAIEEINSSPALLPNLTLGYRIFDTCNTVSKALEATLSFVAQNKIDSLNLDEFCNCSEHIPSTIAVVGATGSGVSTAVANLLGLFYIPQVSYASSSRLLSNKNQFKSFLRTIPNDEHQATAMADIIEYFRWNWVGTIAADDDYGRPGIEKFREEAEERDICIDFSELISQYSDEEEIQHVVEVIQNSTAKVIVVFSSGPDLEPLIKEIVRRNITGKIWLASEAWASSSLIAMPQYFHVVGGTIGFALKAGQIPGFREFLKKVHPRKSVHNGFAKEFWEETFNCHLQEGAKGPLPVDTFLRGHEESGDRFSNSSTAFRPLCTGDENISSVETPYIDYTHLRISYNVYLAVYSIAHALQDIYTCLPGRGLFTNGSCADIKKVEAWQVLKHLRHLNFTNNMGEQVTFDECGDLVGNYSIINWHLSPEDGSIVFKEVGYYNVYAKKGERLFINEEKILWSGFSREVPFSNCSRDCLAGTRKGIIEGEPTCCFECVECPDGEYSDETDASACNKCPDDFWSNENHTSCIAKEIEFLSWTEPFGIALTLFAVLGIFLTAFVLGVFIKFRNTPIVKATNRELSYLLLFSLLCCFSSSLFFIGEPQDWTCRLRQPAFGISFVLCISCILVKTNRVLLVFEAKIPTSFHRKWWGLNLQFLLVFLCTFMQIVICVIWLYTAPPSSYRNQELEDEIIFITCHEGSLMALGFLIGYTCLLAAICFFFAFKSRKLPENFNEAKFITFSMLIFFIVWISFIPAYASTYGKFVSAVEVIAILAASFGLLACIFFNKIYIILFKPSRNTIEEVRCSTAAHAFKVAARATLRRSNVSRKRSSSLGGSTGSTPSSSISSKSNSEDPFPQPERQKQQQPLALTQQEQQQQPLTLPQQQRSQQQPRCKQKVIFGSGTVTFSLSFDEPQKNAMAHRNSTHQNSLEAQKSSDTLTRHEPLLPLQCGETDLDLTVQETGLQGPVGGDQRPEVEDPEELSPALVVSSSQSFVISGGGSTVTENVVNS
Assay: In-vitro assay of calcimimetics through modulation of calcium sensing receptor: increase in intracellular calcium [Ca2+]i, FLIPR
Conditions: stably transfected HEK293 cells expressing hCaSR; Fluo4NW dye; 0.3 mM CaCl2; 8-point assay; read-out: EC50 Range
Structures can show the parent of a compound that is named as a salt.
measurement-type: EC50

// worked examples, EC50 included
| compound | study-target | EC50 |
| --- | --- | --- |
| Cc1ccc(N2CC(CN[C@H](C)c3cccc4ccccc34)Oc3ccccc32)cc1C(=O)O (single isomer, unassigned) [Example 71b, hydrochloride] | Calcium sensing receptor (hCaSR) (Homo sapiens) | < 20 nM |
| C[C@@H](NCCC1CN(c2cccc(OCC(=O)O)c2)c2ccccc2O1)c1cccc2ccccc12 (stereo partly drawn) [Example 138a, hydrochloride] | Calcium sensing receptor (hCaSR) (Homo sapiens) | < 20 nM |
| Cc1cc(N2CC(CCN[C@H](C)c3cccc4ccccc34)Oc3ccccc32)ccc1C(=O)O (stereo partly drawn) [Example 134a, hydrochloride] | Calcium sensing receptor (hCaSR) (Homo sapiens) | 50 to 200 nM |
| Cc1ccc(CN2CC(CCN[C@H](C)c3cccc4ccccc34)Oc3ccccc32)cc1C(=O)O (stereo partly drawn) [Example 177a, hydrochloride] | Calcium sensing receptor (hCaSR) (Homo sapiens) | < 20 nM |
| C[C@@H](NCCC1CN(c2ccc(OCC(=O)O)cc2)c2c(F)cccc2O1)c1cccc2ccccc12 (single isomer, unassigned) [Example 172a, hydrochloride] | Calcium sensing receptor (hCaSR) (Homo sapiens) | < 20 nM |

Dear colleague, I am looking for the recorded EC50 of the following compound: C[C@@H](NCCC1CN(c2ccc(OCC(=O)O)cc2)c2cc(F)ccc2O1)c1cccc2ccccc12 (single isomer, unassigned) [Example 168a]
< 20 nM

Same question for Cc1c(C(=O)O)cccc1N1CC(CN[C@H](C)c2cccc3ccccc23)Oc2ccccc21 (single isomer, unassigned) [Example 58a, hydrochloride] please.
20 to 50 nM

Same question for C[C@@H](NCC1CN(c2cccc(CC(=O)O)c2)c2ccccc2O1)c1cccc2ccccc12 (stereo partly drawn) [Example 69, hydrochloride] please.
50 to 200 nM

Same question for C[C@@H](NCCC1CN(c2cccc(C(=O)O)c2)c2cc(F)ccc2O1)c1cccc2ccccc12 (single isomer, unassigned) [Example 167b] please.
20 to 50 nM

Same question for Cc1ccc(N2CC(CN[C@H](C)c3cccc4ccccc34)Oc3cc(F)ccc32)cc1C(=O)O (stereo partly drawn) [Example 84, hydrochloride] please.
20 to 50 nM

Same question for C[C@@H](NCC1CN(c2cccc(C(=O)O)c2)c2ccccc2O1)c1cccc2ccccc12 (stereo partly drawn) [Example 41, hydrochloride] please.
20 to 50 nM

Same question for C[C@@H](NCCC1CN(c2cccc(OCC(=O)O)c2)c2c(F)cccc2O1)c1cccc2ccccc12 (single isomer, unassigned) [Example 171a, hydrochloride] please.
< 20 nM
